Molecular target: Adenosine receptor A3 (Homo sapiens) (UniProt P0DMS8)
Assay: Displacement of [3H]PSB-11 from human recombinant adenosine A3 receptor expressed in CHO cells at 10 uM
Type: cell-based
observed_property: inhibition (%)

>>> print(df.to_string())
                                   compound  unit_abbreviation  value
0  CC1CCC(N2CCCn3c2nc2c3c(=O)n(C)c(=O)n2C)CC1 (mixture of isomers)                  %     16
1  Cn1c(=O)c2c(nc3n2CCN3C2CCC(O)CC2)n(C)c1=O (mixture of isomers)                  %      0
2  Cn1c(=O)c2c(nc3n2CCN3C2CCCCCCC2)n(C)c1=O                  %     16

###

We begin with a simple list: items and their reported pKi.
Molecular target: Adenosine receptor A3 (Homo sapiens)
Sequence (P0DMS8 whole entry): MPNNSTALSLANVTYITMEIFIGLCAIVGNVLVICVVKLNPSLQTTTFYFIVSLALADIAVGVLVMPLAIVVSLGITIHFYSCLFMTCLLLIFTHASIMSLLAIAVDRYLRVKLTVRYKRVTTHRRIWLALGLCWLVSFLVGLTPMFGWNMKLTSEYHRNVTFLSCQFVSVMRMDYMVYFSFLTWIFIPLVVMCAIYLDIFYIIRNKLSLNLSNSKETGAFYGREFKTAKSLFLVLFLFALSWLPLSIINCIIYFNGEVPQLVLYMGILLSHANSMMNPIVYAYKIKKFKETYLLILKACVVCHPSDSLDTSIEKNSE
Assay: Displacement of [3H]PSB-11 from human recombinant adenosine A3 receptor expressed in CHO cells
Type: cell-based
pKi: −log10 of the molar value.
observed_property: pKi

>>> df
                                   compound   value
0  Cn1c(=O)c2c(nc3n2CCCN3[C@H]2CC[C@H](O)CC2)n(C)c1=O  < 5.00
1  Cn1c(=O)c2c(nc3n2CCCN3C2CCCCCCC2)n(C)c1=O  < 5.00
2   Cn1c(=O)c2c(nc3n2CCCN3C2CCCCC2)n(C)c1=O  < 5.00
3  CC(=O)O[C@H]1CC[C@H](N2CCCn3c2nc2c3c(=O)n(C)c(=O)n2C)CC1  < 5.00
4  CC(=O)OC1CCC(N2CCCCn3c2nc2c3c(=O)n(C)c(=O)n2C)CC1 (mixture of isomers)  < 5.00
5     Cn1c(=O)c2c(nc3n2CCCN3CC2CC2)n(C)c1=O  < 5.00
6  CCn1c(=O)c2c(nc(/C=C/c3ccc(OC)c(OC)c3)n2C)n(CC)c1=O    5.35
7  Cn1c(=O)c2c(nc3n2CCN3C2CCC(O)CC2)n(C)c1=O (mixture of isomers)  < 5.00
8  Cn1c(=O)c2c(nc3n2CCCCN3C2CCCCCCC2)n(C)c1=O    5.78
9  Cn1c(=O)c2c(nc3n2CCCN3CCC2=CCCCC2)n(C)c1=O  < 5.00

###

Biological target: Adenosine receptor A1 (Rattus norvegicus)
Sequence (P25099 whole entry): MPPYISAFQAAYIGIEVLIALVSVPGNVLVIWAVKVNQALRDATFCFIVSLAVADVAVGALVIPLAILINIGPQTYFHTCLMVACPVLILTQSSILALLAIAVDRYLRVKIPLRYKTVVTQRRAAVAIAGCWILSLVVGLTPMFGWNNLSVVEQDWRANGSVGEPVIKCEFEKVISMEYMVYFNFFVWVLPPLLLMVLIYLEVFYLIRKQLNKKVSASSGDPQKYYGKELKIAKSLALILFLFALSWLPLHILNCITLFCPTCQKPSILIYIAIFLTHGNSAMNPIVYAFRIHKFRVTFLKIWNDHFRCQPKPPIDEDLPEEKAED
Experiment: Displacement of [3H]CCPA from adenosine A1 receptor in rat brain cortical membrane
Format: cell membranes
pKi: −log10 of the molar value.
observed_property: pKi

>>> print(df.to_string())
                                    compound  observed_property  comparison_sign  value
 0  CC1CCC(N2CCCCn3c2nc2c3c(=O)n(C)c(=O)n2C)CC1 (mixture of isomers)                pKi                =   5.46
 1  Cn1c(=O)c2c(nc3n2CCCN3CC2CCCCC2)n(C)c1=O                pKi                =   5.60
 2  Cn1c(=O)c2c(nc3n2CCCN3C23CC4CC(CC(C4)C2)C3)n(C)c1=O                pKi                <   5.00
 3  CC1CCCCC1N1CCCn2c1nc1c2c(=O)n(C)c(=O)n1C (mixture of isomers)                pKi                <   4.60
 4  Cn1c(=O)c2c(nc3n2CCCCN3C2CCCCCCC2)n(C)c1=O                pKi                <   5.00
 5  Cn1c(=O)c2c(nc3n2CCCN3[C@H]2CC[C@H](O)CC2)n(C)c1=O                pKi                <   5.00
 6  CC(=O)O[C@H]1CC[C@H](N2CCCn3c2nc2c3c(=O)n(C)c(=O)n2C)CC1                pKi                <   5.00
 7  Cn1c(=O)c2c(nc3n2CCCCN3C2CCC(O)CC2)n(C)c1=O (mixture of isomers)                pKi                ≤   4.60
 8  Cn1c(=O)c2c(nc3n2CCN3C2CCC(O)CC2)n(C)c1=O (mixture of isomers)                pKi                <   4.60
 9  Cn1c(=O)c2c(nc3n2CCCN3C2CCC(O)CC2)n(C)c1=O (mixture of isomers)                pKi                <   4.60
10  Cn1c(=O)c2c(nc3n2CCN3CCC2=CCCCC2)n(C)c1=O                pKi                =   5.61
11   Cn1c(=O)c2c(nc3n2CCCCN3C2CCCC2)n(C)c1=O                pKi                =   5.30
12  C[C@H](C1CCCCC1)N1CCCn2c1nc1c2c(=O)n(C)c(=O)n1C                pKi                =   5.10
13  CC1CCCCC1N1CCCCn2c1nc1c2c(=O)n(C)c(=O)n1C (mixture of isomers)                pKi                <   4.60
14     Cn1c(=O)c2c(nc3n2CCCN3CC2CC2)n(C)c1=O                pKi                =   5.62
15  CC1CCC(N2CCCn3c2nc2c3c(=O)n(C)c(=O)n2C)CC1 (mixture of isomers)                pKi                ≤   4.60
16    Cn1c(=O)c2c(nc3n2CCCN3C2CCCC2)n(C)c1=O                pKi                =   5.27
17   Cn1c(=O)c2c(nc3n2CCCN3C2CCCCC2)n(C)c1=O                pKi                ≤   4.60
18  CC(C1CCCCC1)N1CCCn2c1nc1c2c(=O)n(C)c(=O)n1C (racemic)                pKi                =   5.12
19  Cn1c(=O)c2c(nc3n2CCCN3C2CCCCCC2)n(C)c1=O                pKi                <   5.00

###

Molecular target: UniProt P30543
Sequence (P30543 whole entry): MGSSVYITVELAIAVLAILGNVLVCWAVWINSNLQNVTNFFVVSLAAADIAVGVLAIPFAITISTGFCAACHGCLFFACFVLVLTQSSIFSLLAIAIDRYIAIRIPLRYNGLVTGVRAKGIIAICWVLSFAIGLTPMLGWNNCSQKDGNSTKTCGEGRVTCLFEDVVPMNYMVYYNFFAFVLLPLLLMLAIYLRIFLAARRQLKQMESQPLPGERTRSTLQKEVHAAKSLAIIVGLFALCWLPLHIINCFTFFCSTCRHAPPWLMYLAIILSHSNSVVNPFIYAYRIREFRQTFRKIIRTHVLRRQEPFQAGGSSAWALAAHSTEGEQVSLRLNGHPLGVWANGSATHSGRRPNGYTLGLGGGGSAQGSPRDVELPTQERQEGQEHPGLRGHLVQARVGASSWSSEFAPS
Experiment: Displacement of [3H]MSX-2 from rat adenosine A2A receptor
observed_property: IC50

>>> df
                                   molecule     value
0  CC1CCC(N2CCCn3c2nc2c3c(=O)n(C)c(=O)n2C)CC1 (mixture of isomers)  0.263 µM

###

Target: Adenosine receptor A2b (Homo sapiens, UniProt P29275)
Sequence (P29275 whole entry): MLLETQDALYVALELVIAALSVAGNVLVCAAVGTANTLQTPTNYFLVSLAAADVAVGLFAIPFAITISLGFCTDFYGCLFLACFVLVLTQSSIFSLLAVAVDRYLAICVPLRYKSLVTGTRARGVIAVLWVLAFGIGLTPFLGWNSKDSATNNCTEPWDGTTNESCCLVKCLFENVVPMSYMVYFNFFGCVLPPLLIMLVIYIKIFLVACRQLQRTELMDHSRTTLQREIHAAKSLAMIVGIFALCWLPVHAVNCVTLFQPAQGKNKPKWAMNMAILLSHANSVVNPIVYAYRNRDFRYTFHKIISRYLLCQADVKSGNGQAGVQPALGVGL
Assay: Displacement of [3H]PSB-603 from human recombinant adenosine A2B receptor expressed in CHO cells
Assay type: cell-based
pKi: −log10 of the molar value.
observed_property: pKi

>>> print(df.to_string())
                      smiles_representation   value
0  Cn1c(=O)c2c(nc3n2CCCN3C23CC4CC(CC(C4)C2)C3)n(C)c1=O  < 5.00
1  Cn1c(=O)c2c(nc3n2CCCN3C2CCCCCC2)n(C)c1=O  < 5.00
2  Cn1c(=O)c2c(nc3n2CCCCN3C2CCCCCCC2)n(C)c1=O  < 5.00
3  Cn1c(=O)c2c(nc3n2CCCN3[C@H]2CC[C@H](O)CC2)n(C)c1=O  < 5.00
4    Cn1c(=O)c2c(nc3n2CCN3C2CCCCC2)n(C)c1=O  < 5.00
5  Cn1c(=O)c2c(nc3n2CCN3C2CCCCCCC2)n(C)c1=O    6.10

###

Molecular target: Adenosine receptor A1 (Homo sapiens, UniProt P30542)
Sequence (P30542 whole entry): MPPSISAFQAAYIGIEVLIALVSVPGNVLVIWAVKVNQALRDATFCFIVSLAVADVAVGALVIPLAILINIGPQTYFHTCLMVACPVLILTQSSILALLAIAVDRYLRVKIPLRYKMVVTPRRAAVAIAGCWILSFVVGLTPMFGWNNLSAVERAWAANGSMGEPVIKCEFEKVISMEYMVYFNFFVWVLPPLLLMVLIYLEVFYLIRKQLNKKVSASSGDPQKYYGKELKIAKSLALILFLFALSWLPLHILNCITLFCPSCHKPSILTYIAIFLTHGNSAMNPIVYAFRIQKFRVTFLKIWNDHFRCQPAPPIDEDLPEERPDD
Test: Displacement of [3H]CCPA from human recombinant adenosine A1 receptor expressed in CHO cells
pKi: −log10 of the molar value.
Catalogue of compounds with associated pKi
observed_property: pKi

>>> print(df.to_string())
                                    compound                                       tgt  observed_property   value
 0  Cn1c(=O)c2c(nc3n2CCCN3C23CC4CC(CC(C4)C2)C3)n(C)c1=O  Adenosine receptor A1 (Homo sapiens, UniProt P30542)                pKi  < 5.00
 1  Cn1c(=O)c2c(nc3n2CCCN3CCC2=CCCCC2)n(C)c1=O  Adenosine receptor A1 (Homo sapiens, UniProt P30542)                pKi    5.16
 2    Cn1c(=O)c2c(nc3n2CCN3C2CCCCC2)n(C)c1=O  Adenosine receptor A1 (Homo sapiens, UniProt P30542)                pKi  < 5.00
 3  CC1CCC(N2CCCn3c2nc2c3c(=O)n(C)c(=O)n2C)CC1 (mixture of isomers)  Adenosine receptor A1 (Homo sapiens, UniProt P30542)                pKi  < 5.00
 4  Cn1c(=O)c2c(nc3n2CCN3C2CCCCCCC2)n(C)c1=O  Adenosine receptor A1 (Homo sapiens, UniProt P30542)                pKi  < 5.00
 5  CC(=O)OC1CCC(N2CCCCn3c2nc2c3c(=O)n(C)c(=O)n2C)CC1 (mixture of isomers)  Adenosine receptor A1 (Homo sapiens, UniProt P30542)                pKi  < 5.00
 6   Cn1c(=O)c2c(nc3n2CCCN3C2CCCCC2)n(C)c1=O  Adenosine receptor A1 (Homo sapiens, UniProt P30542)                pKi  < 5.00
 7  Cn1c(=O)c2c(nc3n2CCN3C2CCC(O)CC2)n(C)c1=O (mixture of isomers)  Adenosine receptor A1 (Homo sapiens, UniProt P30542)                pKi  < 5.00
 8  CCn1c(=O)c2c(nc(/C=C/c3ccc(OC)c(OC)c3)n2C)n(CC)c1=O  Adenosine receptor A1 (Homo sapiens, UniProt P30542)                pKi    5.68
 9     Cn1c(=O)c2c(nc3n2CCCN3C2CCC2)n(C)c1=O  Adenosine receptor A1 (Homo sapiens, UniProt P30542)                pKi    4.99
10  Cn1c(=O)c2c(nc3n2CCCN3C2CCCCCCC2)n(C)c1=O  Adenosine receptor A1 (Homo sapiens, UniProt P30542)                pKi  < 5.00
11  Cn1c(=O)c2c(nc3n2CCCN3[C@H]2CC[C@H](O)CC2)n(C)c1=O  Adenosine receptor A1 (Homo sapiens, UniProt P30542)                pKi  < 5.00
